- System: K-562 leukemia
- Method Notes: NCI tumour cell line growth inhibition, 48 h
Observable: TGI

# Compound, Val
measured = [
    ("NCCCN(CCCCN(CCCN)Cc1ccc2ccccc2c1)Cc1ccc2ccccc2c1", "> 100 µM"),
    ("COc1ccc(NS(=O)CCCc2ccccc2)cc1 (stereo unspecified)", "> 100 µM"),
    ("O=C(NN1C(=O)CSC12CCCCC2)c1[nH]c2ccc(F)cc2c1-c1ccccc1", "52.7 µM"),
    ("COc1ccc2[nH]c3c(c2c1)CCn1c-3nc2ccccc2c1=O", "> 25 µM"),
    ("COc1cc2c(c(OC)c1OC)C(=O)[C@H](O)[C@H]2NC(N)=O", "> 100 µM"),
    ("CN(C)c1ccc(/C=C\\c2cccc[n+]2C)cc1", "> 100 µM"),
    ("Nc1c2c(nc3ccccc13)CCCCCC2", "69 µM"),
    ("CN(CCO)c1nc2c(c(=O)[nH]1)CCC2", "> 100 µM"),
    ("COc1ccc(-c2c(N)n(-c3nc4ccccc4s3)c(=O)c3cc([N+](=O)[O-])ccc23)cc1", "> 100 µM"),
    ("CC1=C2C(=O)c3ccccc3C(=O)[C@H]2[C@H]2CCO[C@H]2O1", "74.5 µM"),
    ("Cn1c2c(cc(S(=O)(=O)c3ccccc3)c1=O)CCc1c-2cnn1-c1ccc(Cl)cc1", "> 100 µM"),
    ("O=C(c1ccccc1)C(CN1CCOCC1)c1ccccc1 (stereo unspecified)", "3.38 µM"),
    ("O=C1c2c(c3c4ccccc4[nH]c3c3ccc4ccccc4c23)C(=O)N1CCN1CCCCC1", "6.34 µM"),
    ("Cc1ccc(C2=NOC3=c4ccccc4=CSC3=C2c2ccc([N+](=O)[O-])cc2)cc1", "> 100 µM"),
    ("CC1=NN(c2ccccc2)C(=O)/C1=C/c1ccc(O)cc1", "> 100 µM"),
    ("O=c1oc2ccccc2c(Nc2ccc3c(c2)S(=O)(=O)c2ccccc2O3)c1[N+](=O)[O-]", "71.3 µM"),
    ("CN(C)CCCNc1ccc2ncn3c4ccccc4c(=O)c1c23", "24.1 µM"),
    ("CCOC(=O)/C(C(=S)Nc1ccccc1)=C(/N)N1CCCC1", "> 100 µM"),
    ("CCOC1(COP(=O)(OCc2ccccc2)OCc2ccccc2)COC(COP(=O)(OCc2ccccc2)OCc2ccccc2)(OCC)CO1 (stereo unspecified)", "> 100 µM"),
    ("Cc1cc(C)c(C2=NOC(c3ccccc3)(c3cc(=O)n(-c4ccccc4)s3)O2)c(C)c1 (stereo unspecified)", "> 100 µM"),
    ("COC(=O)c1c2n(c3ccccc13)C[C@H]1OC(C)(C)O[C@@H]21", "> 100 µM"),
    ("CCCCCCCCCCCC(=O)OCCOCCOCCOCCOCCOCc1ccc(OC)cc1", "> 100 µM"),
    ("Clc1cc(Cl)c(OCC#CI)cc1Cl", "18.9 µM"),
    ("CCCn1c(C)nc2c1C(=O)c1ccccc1C2=O", "> 100 µM"),
    ("O=c1oc2ccccc2c2c(=O)c3ccc(OC/C(=N/O)c4ccc(Cl)cc4)cc3oc12", "12.1 µM"),
    ("CCCCCCc1cc(C(=O)Nc2cccc(C(F)(F)F)c2)nc(N)n1", "> 100 µM"),
    ("O=C1C(=O)c2c(nc3ccc(Cl)cn23)-c2ccccc21", "> 100 µM"),
    ("Cc1cc(N(CCC#N)CCC#N)ccc1/C=C/C(=O)Nc1cccc(Cl)c1", "> 100 µM"),
    ("CC(=O)C1=CSC2[C@H](NC(=O)Cc3ccccc3)C(=O)N2C1C(=O)OC(c1ccccc1)c1ccccc1 (stereo partly specified)", "> 100 µM"),
    ("C=C1CC2OC2(C(=O)O[C@H]2CCC3[C@@H]4CCC5=CC(=O)CC[C@]5(C)C4CC[C@@]32C)C1=O (stereo partly specified)", "7.03 µM"),
    ("CCC1(CC)CC(=NNS(=O)(=O)c2ccc(C)cc2)C1", "> 100 µM"),
    ("C[C@@H]1CC[C@H]2C(COCCOCC3=C(C(F)(F)F)O[C@@H]4O[C@@]5(C)CC[C@H]6[C@H](C)CC[C@@H]3[C@@]46OO5)=C(C(F)(F)F)O[C@@H]3O[C@@]4(C)CC[C@@H]1[C@]32OO4", "> 100 µM"),
    ("O=c1ccc2cc(O)c(O)cc2o1", "> 100 µM"),
    ("C[C@]12CC[C@H]3[C@@H](CCC4=CC(=O)CC[C@@H]43)[C@@H]1CC[C@@H]2OC(=O)CCc1ccccc1", "> 69 µM"),
    ("CCC1CN2CCc3cc(OC)c(OC)cc3C2CC1CC1c2cc(OC)c(OC)cc2CCN1C(=O)C1CCCN1C(=O)OCc1ccccc1 (stereo unspecified)", "36 µM"),
    ("CCOC(=O)C1Oc2ccc([N+](=O)[O-])c3c2C1(O)CCC3 (stereo unspecified)", "> 100 µM"),
    ("CCC(NC(C)c1ccccc1)C(O)c1ccc(OCc2ccccc2)c(OCc2ccccc2)c1 (stereo unspecified)", "9.44 µM"),
    ("COc1ccc(N2C(=O)C3c4[nH]c5ccc(C)cc5c4C4CCC(C)CC4C3C2=O)cc1 (stereo unspecified)", "> 100 µM"),
    ("O=C(NCc1cccnc1)NCc1cccnc1", "> 100 µM"),
    ("Cc1n[nH]c(=O)c2cc(-c3ccccc3)[nH]c12", "> 100 µM"),
    ("COc1cc2c(c(OC)c1OC)-c1ncc3cc(OC)c(OC)c(OC)c3c1C2", "50.8 µM"),
]
